Assign inhibition to each entry below.
TARGET ENTITY: Melanocortin receptor 5 (Homo sapiens)
Sequence (P33032 whole entry, the tested form may be a part): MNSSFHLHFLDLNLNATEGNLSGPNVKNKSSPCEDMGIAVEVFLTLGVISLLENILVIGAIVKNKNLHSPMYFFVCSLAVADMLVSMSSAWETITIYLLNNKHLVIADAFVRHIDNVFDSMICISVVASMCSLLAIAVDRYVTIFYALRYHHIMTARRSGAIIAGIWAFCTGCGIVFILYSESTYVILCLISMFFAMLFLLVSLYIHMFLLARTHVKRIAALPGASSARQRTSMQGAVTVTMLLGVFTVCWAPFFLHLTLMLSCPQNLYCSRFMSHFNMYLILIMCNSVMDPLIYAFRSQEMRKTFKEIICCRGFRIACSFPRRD
ASSAY TEXT: Displacement of [125I]-NDP-alpha-MSH from human MC5R LBD expressed in HEK293 cell membranes incubated for 16 to 23 hrs in dark by scintillation proximity assay
Design: concentration or dose not given beside the values
EXPERIMENTAL PARAMETERS: concentration not given here
One number for each entry, in %.

| MOLECULE | UNITS SYMBOL | inhibition |
| --- | --- | --- |
| CC[C@H](C)[C@@H]1NC(=O)[C@@H]2CCCN2C(=O)[C@@H]2CCCN2C(=O)[C@H]([C@@H](C)CC)NC(=O)[C@H](CO)NC(=O)[C@H](C)NC(=O)[C@H]([C@H](C)O)NC(=O)[C@@H]2CSSC[C@H](NC1=O)C(=O)N[C@@H](Cc1cnc[nH]1)C(=O)N[C@@H](Cc1ccccc1)C(=O)N[C@@H](CCCNC(=N)N)C(=O)N[C@@H](Cc1c[nH]c3ccccc13)C(=O)N[C@@H](CCCNC(=N)N)C(=O)N2 | % | 100 |
| CC[C@H](C)[C@@H]1NC(=O)[C@@H]2CCCN2C(=O)[C@H](Cc2c[nH]c3ccccc23)N(C)C(=O)[C@H](CCCNC(=N)N)N(C)C(=O)[C@@H](Cc2ccccc2)NC(=O)[C@H](Cc2cnc[nH]2)NC(=O)[C@H]([C@@H](C)O)NC(=O)[C@@H]2CSSC[C@H](NC1=O)C(=O)N[C@@H](Cc1ccccc1)C(=O)N1CCC[C@H]1C(=O)N[C@@H](CC(=O)O)C(=O)NCC(=O)N[C@@H](CCCNC(=N)N)C(=O)N2 | % | 100 |

Next:
Form entry - test system: Melanocortin receptor 5 (Homo sapiens); read-out: inhibition; compound: `CC[C@H](C)[C@@H]1NC(=O)[C@@H]2CCCN2C(=O)[C@H](Cc2c[nH]c3ccccc23)N(C)C(=O)[C@H](CCCNC(=N)N)NC(=O)[C@@H](Cc2ccccc2)NC(=O)[C@H](Cc2cnc[nH]2)N(C)C(=O)[C@H]([C@@H](C)O)NC(=O)[C@@H]2CSSC[C@H](NC1=O)C(=O)N[C@@H](Cc1ccccc1)C(=O)N1CCC[C@H]1C(=O)N[C@@H](CC(=O)O)C(=O)NCC(=O)N[C@@H](CCCNC(=N)N)C(=O)N2`
100

* * *

Assign inhibition to each entry below.
TARGET ENTITY: UniProt:P41968
Sequence (P41968 whole entry, the tested form may be a part): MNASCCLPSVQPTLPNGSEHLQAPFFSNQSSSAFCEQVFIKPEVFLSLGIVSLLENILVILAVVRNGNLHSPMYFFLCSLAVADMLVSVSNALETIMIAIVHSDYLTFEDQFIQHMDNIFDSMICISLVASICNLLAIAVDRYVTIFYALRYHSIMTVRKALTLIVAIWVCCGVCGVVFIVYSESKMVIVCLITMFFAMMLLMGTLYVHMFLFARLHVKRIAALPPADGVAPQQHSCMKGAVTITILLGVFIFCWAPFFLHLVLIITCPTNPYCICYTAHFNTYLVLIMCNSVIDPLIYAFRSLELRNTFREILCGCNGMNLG
ASSAY TEXT: Displacement of [125I]-NDP-alpha-MSH from human MC3R LBD expressed in HEK293 cell membranes incubated for 16 to 23 hrs in dark by scintillation proximity assay
Design: concentration or dose not given beside the values
EXPERIMENTAL PARAMETERS: concentration not given here
Where a SMILES comes first, the peptide text is derived from it. Bridges are numbered along the chain shown (N, C = ends). [ ]: non-standard residue; d: D form. NMeW = CN[C@@H](Cc1c[nH]c2ccccc12)C(=O)O
Give bare numbers, in %.

Recorded results for 2 molecules are shown here.
| MOLECULE | UNITS SYMBOL | ASSAY VALUE |
| --- | --- | --- |
| CC[C@H](C)[C@@H]1NC(=O)[C@@H]2CCCN2C(=O)[C@H](Cc2c[nH]c3ccccc23)N(C)C(=O)[C@H](CCCNC(=N)N)NC(=O)[C@@H](Cc2ccccc2)NC(=O)[C@H](Cc2cnc[nH]2)NC(=O)[C@H]([C@@H](C)O)NC(=O)[C@@H]2CSSC[C@H](NC1=O)C(=O)N[C@@H](Cc1ccccc1)C(=O)N1CCC[C@H]1C(=O)N[C@@H](CC(=O)O)C(=O)NCC(=O)N[C@@H](CCCNC(=N)N)C(=O)N2 (cyclo(CFPDGRCTH[dF]R[NMeW]PI); disulfide 1-7) | % | 100 |
| CC[C@H](C)[C@@H]1NC(=O)[C@@H]2CCCN2C(=O)[C@@H]2CCCN2C(=O)[C@H]([C@@H](C)CC)NC(=O)[C@H](CO)NC(=O)[C@H](C)NC(=O)[C@H]([C@H](C)O)NC(=O)[C@@H]2CSSC[C@H](NC1=O)C(=O)N[C@@H](Cc1cnc[nH]1)C(=O)N[C@H](Cc1ccccc1)C(=O)N[C@@H](CCCNC(=N)N)C(=O)N(C)[C@@H](Cc1c[nH]c3ccccc13)C(=O)N[C@@H](CCCNC(=N)N)C(=O)N2 | % | 100 |

Param item = `CC[C@H](C)[C@@H]1NC(=O)[C@@H]2CCCN2C(=O)[C@@H]2CCCN2C(=O)[C@H]([C@@H](C)CC)NC(=O)[C@H](CO)NC(=O)[C@H](C)NC(=O)[C@H]([C@H](C)O)NC(=O)[C@@H]2CSSC[C@H](NC1=O)C(=O)N[C@@H](Cc1cnc[nH]1)C(=O)N[C@H](Cc1ccccc1)C(=O)N(C)[C@@H](CCCNC(=N)N)C(=O)N[C@@H](Cc1c[nH]c3ccccc13)C(=O)N[C@@H](CCCNC(=N)N)C(=O)N2` ; retrieve measured inhibition.
100

* * *

Assign Activity to each entry below.
TARGET ENTITY: Melanocyte-stimulating hormone receptor (Homo sapiens)
Sequence (Q01726 whole entry, looked up): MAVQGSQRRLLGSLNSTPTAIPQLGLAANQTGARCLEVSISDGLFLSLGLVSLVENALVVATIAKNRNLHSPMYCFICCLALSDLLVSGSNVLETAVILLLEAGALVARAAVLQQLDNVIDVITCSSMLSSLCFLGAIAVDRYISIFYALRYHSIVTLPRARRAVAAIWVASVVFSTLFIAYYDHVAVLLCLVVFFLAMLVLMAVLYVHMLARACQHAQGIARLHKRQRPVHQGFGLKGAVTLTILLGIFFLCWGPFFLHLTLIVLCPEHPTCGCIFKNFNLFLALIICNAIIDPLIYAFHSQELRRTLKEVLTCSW
ASSAY TEXT: Agonist activity at human MC1R expressed in low doxycyclin-treated HEK293 cell membranes assessed as increase in cAMP production after 45 mins by HTRF method
Assay type: functional, cell-based
One number for each entry, in %.

Recorded results for 3 compounds are shown here.
| MOLECULE | TARGET ENTITY | UNITS SYMBOL | Activity |
| --- | --- | --- | --- |
| CC[C@H](C)[C@@H]1NC(=O)[C@@H]2CCCN2C(=O)[C@H](Cc2c[nH]c3ccccc23)N(C)C(=O)[C@H](CCCNC(=N)N)NC(=O)[C@@H](Cc2ccccc2)NC(=O)[C@H](Cc2cnc[nH]2)N(C)C(=O)[C@H]([C@@H](C)O)NC(=O)[C@@H]2CSSC[C@H](NC1=O)C(=O)N[C@@H](Cc1ccccc1)C(=O)N1CCC[C@H]1C(=O)N[C@@H](CC(=O)O)C(=O)NCC(=O)N[C@@H](CCCNC(=N)N)C(=O)N2 | Melanocyte-stimulating hormone receptor (Homo sapiens) | % | 100 |
| CC[C@H](C)[C@@H]1NC(=O)[C@@H]2CCCN2C(=O)[C@@H]2CCCN2C(=O)[C@H]([C@@H](C)CC)NC(=O)[C@H](CO)NC(=O)[C@H](C)NC(=O)[C@H]([C@H](C)O)NC(=O)[C@@H]2CSSC[C@H](NC1=O)C(=O)N(C)[C@@H](Cc1cnc[nH]1)C(=O)N[C@H](Cc1ccccc1)C(=O)N(C)[C@@H](CCCNC(=N)N)C(=O)N(C)[C@@H](Cc1c[nH]c3ccccc13)C(=O)N[C@@H](CCCNC(=N)N)C(=O)N2 | Melanocyte-stimulating hormone receptor (Homo sapiens) | % | 100 |
| CC[C@H](C)[C@@H]1NC(=O)[C@@H]2CCCN2C(=O)[C@@H]2CCCN2C(=O)[C@H]([C@@H](C)CC)NC(=O)[C@H](CO)NC(=O)[C@H](C)NC(=O)[C@H]([C@H](C)O)NC(=O)[C@@H]2CSSC[C@H](NC1=O)C(=O)N[C@@H](Cc1cnc[nH]1)C(=O)N[C@H](Cc1ccccc1)C(=O)N(C)[C@@H](CCCNC(=N)N)C(=O)N(C)[C@@H](Cc1c[nH]c3ccccc13)C(=O)N[C@@H](CCCNC(=N)N)C(=O)N2 | Melanocyte-stimulating hormone receptor (Homo sapiens) | % | 100 |

Each compound below has a reported value. Please supply its Activity.
1. CC[C@H](C)[C@@H]1NC(=O)[C@@H]2CCCN2C(=O)[C@H](Cc2c[nH]c3ccccc23)NC(=O)[C@H](CCCNC(=N)N)NC(=O)[C@@H](Cc2ccccc2)NC(=O)[C@H](Cc2cnc[nH]2)NC(=O)[C@H]([C@@H](C)O)NC(=O)[C@@H]2CSSC[C@H](NC1=O)C(=O)N[C@@H](Cc1ccccc1)C(=O)N1CCC[C@H]1C(=O)N[C@@H](CC(=O)O)C(=O)NCC(=O)N[C@@H](CCCNC(=N)N)C(=O)N2
2. CC[C@H](C)[C@@H]1NC(=O)[C@@H]2CCCN2C(=O)[C@@H]2CCCN2C(=O)[C@H]([C@@H](C)CC)NC(=O)[C@H](CO)NC(=O)[C@H](C)NC(=O)[C@H]([C@H](C)O)NC(=O)[C@@H]2CSSC[C@H](NC1=O)C(=O)N[C@@H](Cc1cnc[nH]1)C(=O)N[C@@H](Cc1ccccc1)C(=O)N[C@@H](CCCNC(=N)N)C(=O)N[C@@H](Cc1c[nH]c3ccccc13)C(=O)N[C@@H](CCCNC(=N)N)C(=O)N2

1. 100
2. 100

* * *

ASSAY TEXT: Solubility of the compound in water at 1 mM
Format: physicochemical
EXPERIMENTAL PARAMETERS: buffer, 1000 µM

| MOLECULE | solubility |
| --- | --- |
| CC[C@H](C)[C@@H]1NC(=O)[C@@H]2CCCN2C(=O)[C@@H]2CCCN2C(=O)[C@H]([C@@H](C)CC)NC(=O)[C@H](CO)NC(=O)[C@H](C)NC(=O)[C@H]([C@H](C)O)NC(=O)[C@@H]2CSSC[C@H](NC1=O)C(=O)N[C@@H](Cc1cnc[nH]1)C(=O)N[C@@H](Cc1ccccc1)C(=O)N[C@@H](CCCNC(=N)N)C(=O)N[C@@H](Cc1c[nH]c3ccccc13)C(=O)N[C@@H](CCCNC(=N)N)C(=O)N2 | Soluble |
| CC[C@H](C)[C@@H]1NC(=O)[C@@H]2CCCN2C(=O)[C@@H]2CCCN2C(=O)[C@H]([C@@H](C)CC)NC(=O)[C@H](CO)NC(=O)[C@H](C)NC(=O)[C@H]([C@@H](C)O)NC(=O)[C@@H]2CSSC[C@H](NC1=O)C(=O)N(C)[C@@H](Cc1cnc[nH]1)C(=O)N[C@H](Cc1ccccc1)C(=O)N[C@@H](CCCNC(=N)N)C(=O)N(C)[C@@H](Cc1c[nH]c3ccccc13)C(=O)N[C@@H](CCCNC(=N)N)C(=O)N2 | Soluble |
| CC[C@H](C)[C@@H]1NC(=O)[C@@H]2CCCN2C(=O)[C@H](Cc2c[nH]c3ccccc23)NC(=O)[C@H](CCCNC(=N)N)NC(=O)[C@H](Cc2ccccc2)NC(=O)[C@H](Cc2cnc[nH]2)NC(=O)[C@H]([C@@H](C)O)NC(=O)[C@@H]2CSSC[C@H](NC1=O)C(=O)N[C@@H](Cc1ccccc1)C(=O)N1CCC[C@H]1C(=O)N[C@@H](CC(=O)O)C(=O)NCC(=O)N[C@@H](CCCNC(=N)N)C(=O)N2 | Soluble |
